Just for reference, the supplement of paper PMC10567573 is where these values come from.

Give measured protein stability index for each item. Keep answers brief.
B1: MYL5 (parent)
chain: FQFASIDVAGNLDYKALSYVITHG

# Variants of: B1
# assay-comment: protein stability index of a GFP-peptide fusion (GPS, HEK-293T) (PSI 1-6); higher = more stable;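 note: lentivirally expressed fusions sorted by FACS into six bins by GFP to DsRed ratio, PSI derived from sequencing read proportions per bin multiplied by bin number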
# measurement-context: c terminus: a fixed tail appended
Give bare numbers.

Example entries begin here.
>>> print(df.to_string())
   variant_designation  result
0                  F3V    2.75
1                  F3I    2.29
2                  I6N    3.39

Take each entry in turn and give its protein stability index.
1. Q2F
2. L12E
3. Y19G

Output:
1: 2.36; 2: 3.08; 3: 3.74

Value sought for every listed variant: protein stability index.
1. A4L
2. Q2E
3. V20K
4. A16D
5. I6H
6. I6G

Output:
4.51
4.45
2.23
3.18
4
1.26

Quick batch: protein stability index for everything below.
1. F3S
2. S5F
3. L17T
4. G24A
5. G24F
6. V20G
7. S5M
8. G10A

Output:
1: 1.93; 2: 3.77; 3: 2.2; 4: 3; 5: 2.42; 6: 2.81; 7: 3.67; 8: 2.49
